tested on: P388 leukemia ip, CD2F1 mice, survival T/C; assay: NCI In Vivo Anticancer Drug Screen. Data for tumor model P388 Leukemia (intraperitoneal) in CD2F1 (CDF1) mice; settings: endpoint: median survival time; dose: 25.0 mg/kg/injection; schedule: Q01DX005 (ip); vehicle: Klucel (hydroxypropylcellulose) (HPC)
Toxic doses and inconclusive results are not listed. Rule for the calls: active = survival T/C of 150% or more; inactive = T/C below 125% in these data.
Write down one outcome, taken from true (1) = active, false (0) = inactive

INSERT INTO results (compound, class_assignment) VALUES
  ('C[CH2][Ge]([CH2]C)[O]C(=O)C(=O)[O][Ge]([CH2]C)[CH2]C', 'false (0)'),
  ('COc1cc2oc3cc(OC)c(OC)c(CC=C(C)C)c3c(=O)c2c(O)c1CC=C(C)C', 'false (0)'),
  ('CC1S(=O)(=O)OCCCOS1(=O)=O', 'true (1)'),
  ('CCCn1c(CC)nc([N+](=O)[O-])c1Sc1ncn[nH]1', 'false (0)'),
  ('Cn1c([N+](=O)[O-])cnc1CSc1ccc(C#N)cc1', 'false (0)');

Query: Returns: the outcome recorded for CCCCc1ccc2nc(C)cc(N/N=C/c3ccc(OC)c4ccccc34)c2c1 in this assay.
Reply: false (0)

Query: Recorded test outcome, item CC(=O)OCC12C(=O)CC(C)C3(CC(c4ccoc4)OC3=O)C1(C)CCCC21CO1 (centres undefined)
Reply: false (0)

Query: What is the recorded call for this compound in the test? CC(=O)OCC12C(OC(=O)c3ccccc3)C(=O)C3C(OC(C)=O)C1(OC3(C)C)C(C)(O)CC(OC(C)=O)C2OC(=O)/C=C/c1ccccc1 (centres undefined) (tested in a mixture with another compound)
Reply: false (0)

###

T/C values by entry
tested on: P388 leukemia ip, CD2F1 mice, survival T/C; experiment: NCI In Vivo Anticancer Drug Screen. Data for tumor model P388 Leukemia (intraperitoneal) in CD2F1 (CDF1) mice; details: endpoint: median survival time; dose: 100.0 mg/kg/injection; schedule: Q01DX009 (ip); vehicle: Klucel (hydroxypropylcellulose) (HPC); higher = longer survival
Toxic doses and inconclusive results are not listed.

Sample records with T/C:
INSERT INTO measurements (compound, assay_value) VALUES
  ('CC(=O)Nc1c(C)cccc1C', '97 % of control'),
  ('CC(=N)C(C#N)C(=S)SCCC#N (stereo unspecified)', '89 % of control'),
  ('Cc1s/c(=N/N=C2\C(=O)C=Cc3ccccc32)n(O)c1C', '108 % of control'),
  ('O=C1OC(c2ccccc2)Sc2ccccc21 (stereo unspecified)', '99 % of control'),
  ('COC(=O)CS(=O)(=O)CC(=O)OC', '106 % of control'),
  ('CC12CCC3C(C1)C(C(=O)O2)C(=O)OC3(C)C (stereo unspecified)', '101 % of control');

T/C on P388 leukemia ip, CD2F1 mice, survival T/C for CP1(=S)CCC2=C1CCc1cc(O)ccc12 (stereo unspecified) is 104 % of control

Item Cc1n[nH]c(=S)n1N ; assay system P388 leukemia ip, CD2F1 mice, survival T/C; T/C reported as 93 % of control

Note to self: T/C of S=c1[nH]ccc2ccccc12 with P388 leukemia ip, CD2F1 mice, survival T/C was 101 % of control

Hey, P388 leukemia ip, CD2F1 mice, survival T/C data for OC(C(=S)N1CCOCC1)(c1ccccc1)c1ccccc1 : T/C came out at 103 % of control

Record for O=C(Sc1ccc(Cl)cc1)N1CCN(C(=O)Sc2ccc(Cl)cc2)CC1 under target or system P388 leukemia ip, CD2F1 mice, survival T/C: T/C reported as 90 % of control

I looked up C(=NCc1ccccc1)c1ccccc1-c1ccccc1C=NCc1ccccc1 and its T/C for P388 leukemia ip, CD2F1 mice, survival T/C was 100 % of control

Tested on P388 leukemia ip, CD2F1 mice, survival T/C, the item CC(=O)Nc1c(Br)cc(C)cc1Br showed T/C equal to 102 % of control

// assay P388 leukemia ip, CD2F1 mice, survival T/C, entry C(=C\c1ccncc1)/c1ccncc1 , T/C value = 89 % of control

Value (T/C, P388 leukemia ip, CD2F1 mice, survival T/C) for record NS(=O)(=O)c1ccc(NC(=O)Nc2c(Cl)cccc2Cl)cc1 = 87 % of control

P388 leukemia ip, CD2F1 mice, survival T/C T/C of CC(=O)OCC1=CC2OC(=O)C3=COC(OC4OC(CO)C(O)C(O)C4O)C1C32 (stereo unspecified) is 89 % of control

Form field, T/C with P388 leukemia ip, CD2F1 mice, survival T/C, item CCCCNC1=C(Cl)C(=O)c2ccccc2C1=O : 92 % of control

For Nc1nc(SCc2ccccc2)sc1C(=O)N(Cc1ccccc1)Cc1ccccc1 on P388 leukemia ip, CD2F1 mice, survival T/C, measured T/C was 100 % of control

Measured T/C for this entry CCCCCCCCCCCC(=O)C(=O)c1ccc(O)c(C)c1O on P388 leukemia ip, CD2F1 mice, survival T/C: 105 % of control

###

# key: entry, value: T/C
system: P388 leukemia ip, CD2F1 mice, survival T/C; test: NCI In Vivo Anticancer Drug Screen. Data for tumor model P388 Leukemia (intraperitoneal) in CD2F1 (CDF1) mice; conditions: endpoint: median survival time; dose: 60.0 mg/kg/injection; schedule: Q01DX005 (ip); vehicle: saline; higher = longer survival
Toxic doses and inconclusive results are not listed.

Worked cases, T/C given:
INSERT INTO results (compound, subject_of_test, assay_value) VALUES
  ('O=P1(O)OC[C@H]2CCC[C@@H]2O1', 'P388 leukemia ip, CD2F1 mice, survival T/C', '106 % of control'),
  ('CCN(CC)CCCNC(c1ccc(OC)c(OC)c1)C(Cl)(Cl)Cl (configuration not stated)', 'P388 leukemia ip, CD2F1 mice, survival T/C', '94 % of control'),
  ('CCOC(=O)/C=C/CC1CCNC1 (configuration not stated)', 'P388 leukemia ip, CD2F1 mice, survival T/C', '100 % of control'),
  ('CCc1cc(CN2CCN(CCO)CC2)c(O)c(CN2CCN(CCO)CC2)c1', 'P388 leukemia ip, CD2F1 mice, survival T/C', '102 % of control'),
  ('COc1nc2c(nnn2C2OC(CO)C(O)C(O)C2O)c(=O)[nH]1 (configuration not stated)', 'P388 leukemia ip, CD2F1 mice, survival T/C', '97 % of control'),
  ('CC(C)N1C(C)(C)C1(C)C#N (configuration not stated)', 'P388 leukemia ip, CD2F1 mice, survival T/C', '100 % of control'),
  ('O=C1OC2C(O)COC23OC(O)CCC13O (configuration not stated)', 'P388 leukemia ip, CD2F1 mice, survival T/C', '104 % of control'),
  ('Cc1ccc(/C=C/C(=O)C(C)(C)CN(C)CCN(C)C)cc1', 'P388 leukemia ip, CD2F1 mice, survival T/C', '103 % of control');

Looking up Nc1nc(-c2ccc(F)cc2)cc(-c2cc(-c3ccc(F)cc3)nc(N)n2)n1 , I found its T/C recorded as 100 % of control

Summary for this compound, NC(=O)[C@@H]1CCCN1C(=O)c1cccnc1 : T/C is 98 % of control

Form: compound = C[C@@H]1C[C@H](C)OC(CCl)O1 (some centres not stated) ; T/C = 100 % of control

So, CC1CC2=C(C(=O)c3ccccc3C2=O)C(C)O1 (configuration not stated) ? Its T/C was 106 % of control

###

test system: P388 leukemia ip, CD2F1 mice, survival T/C; assay: NCI In Vivo Anticancer Drug Screen. Data for tumor model P388 Leukemia (intraperitoneal) in CD2F1 (CDF1) mice; conditions: endpoint: median survival time; dose: 50.0 mg/kg/injection; schedule: Q01DX005 (ip); vehicle: Klucel (hydroxypropylcellulose) (HPC); higher = longer survival
Inconclusive results and toxic doses are left out.
quantity name: T/C

INSERT INTO assay_data (compound, assay_value) VALUES
  ('CC1(C)OP(=O)(O)C=C1[Se]c1ccccc1', '100 % of control'),
  ('O=C1c2ccccc2C(=O)N1OCc1cccc(C(F)(F)F)c1', '98 % of control'),
  ('CC1C(c2ccccc2)NC(c2ccccc2)CC1(N)C#N (stereo unspecified)', '95 % of control'),
  ('COc1ccc2nc(Cl)c(CBr)c(CBr)c2c1', '117 % of control'),
  ('COc1cc(N)c(S(=O)(=O)O)cc1N=N/C(=N/Nc1cc(S(=O)(=O)O)c(N)cc1OC)C(=O)Nc1ccccc1', '107 % of control'),
  ('O=S(=O)(c1ccccc1)N1CCCCN(S(=O)(=O)c2ccccc2)COC1', '104 % of control'),
  ('CC1(c2ccc(Cl)cc2)OC(=O)CC(=O)O1', '99 % of control'),
  ('C=C(C)c1nc(N)nc(NCc2ccccc2)n1', '100 % of control'),
  ('O=C(NC(=S)Nc1c(Cl)cccc1Cl)c1cccc(Cl)c1', '94 % of control'),
  ('[N-]=[N+]=NC1(N=[N+]=[N-])C(=O)c2cccc3c2N(CCC3)C1=O (stereo unspecified)', '92 % of control');

Shifting focus to the compound that follows.
Lab book: T/C of O=C(O)c1cccc2c1C(=O)c1ccccc1-2 noted as 95 % of control
